Reference source: patent US20210198277A1

Target: human EHMT2 913-1193 (Homo sapiens, UniProt Q96KQ7)
Construct: recombinant purified human EHMT2 913-1193, Viva; purchased Viva
Sequence (Q96KQ7 913-1193): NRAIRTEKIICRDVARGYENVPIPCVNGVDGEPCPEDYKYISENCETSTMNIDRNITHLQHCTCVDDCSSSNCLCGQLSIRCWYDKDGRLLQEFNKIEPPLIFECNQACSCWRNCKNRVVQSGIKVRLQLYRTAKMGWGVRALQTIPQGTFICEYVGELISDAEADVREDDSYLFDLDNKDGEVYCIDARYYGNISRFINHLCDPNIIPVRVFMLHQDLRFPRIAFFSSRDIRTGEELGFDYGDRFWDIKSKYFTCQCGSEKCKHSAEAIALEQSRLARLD
Experiment: EHMT2 enzyme assay on histone peptide substrate (EHMT2 PEP)
Format: biochemical
Settings: Table II; read-out: EHMT2 PEP (IC50 μM)
Consider the following molecules and their measured IC50 readings.
value.kind: IC50

[[record]]
molecule = "COc1ccc(Nc2nccc(NCCc3ccccn3)n2)cc1OCCCN1CCCC1 [Compound 167]"
assayed_target = "human EHMT2 913-1193 (Homo sapiens, UniProt Q96KQ7)"
result = "0.1 to 1 µM"

[[record]]
molecule = "COc1ccc(Nc2nccc(NCC3CCOCC3)n2)cc1OCCN1CCOCC1 [Compound 204]"
assayed_target = "human EHMT2 913-1193 (Homo sapiens, UniProt Q96KQ7)"
result = "1 to 10 µM"

[[record]]
molecule = "CNc1nc(Nc2ccc(OC)c(OCCCN3CCCC3)c2)ncc1C(F)(F)F [Compound 234]"
assayed_target = "human EHMT2 913-1193 (Homo sapiens, UniProt Q96KQ7)"
result = "> 10 µM"

[[record]]
molecule = "CNc1ccnc(Nc2ccc(OC)c(OCCCN3CCOCC3)c2)n1 [Compound 210]"
assayed_target = "human EHMT2 913-1193 (Homo sapiens, UniProt Q96KQ7)"
result = "1 to 10 µM"

[[record]]
molecule = "COc1ccc(OCCCN2CCCC2)cc1Nc1nccc(NCC2CCOCC2)n1 [Compound 227]"
assayed_target = "human EHMT2 913-1193 (Homo sapiens, UniProt Q96KQ7)"
result = "> 10 µM"


====

Biological target: EHMT2 (Homo sapiens, UniProt Q96KQ7)
Construct: host or cells: MDA-MB-231
Sequence (Q96KQ7 1-1210): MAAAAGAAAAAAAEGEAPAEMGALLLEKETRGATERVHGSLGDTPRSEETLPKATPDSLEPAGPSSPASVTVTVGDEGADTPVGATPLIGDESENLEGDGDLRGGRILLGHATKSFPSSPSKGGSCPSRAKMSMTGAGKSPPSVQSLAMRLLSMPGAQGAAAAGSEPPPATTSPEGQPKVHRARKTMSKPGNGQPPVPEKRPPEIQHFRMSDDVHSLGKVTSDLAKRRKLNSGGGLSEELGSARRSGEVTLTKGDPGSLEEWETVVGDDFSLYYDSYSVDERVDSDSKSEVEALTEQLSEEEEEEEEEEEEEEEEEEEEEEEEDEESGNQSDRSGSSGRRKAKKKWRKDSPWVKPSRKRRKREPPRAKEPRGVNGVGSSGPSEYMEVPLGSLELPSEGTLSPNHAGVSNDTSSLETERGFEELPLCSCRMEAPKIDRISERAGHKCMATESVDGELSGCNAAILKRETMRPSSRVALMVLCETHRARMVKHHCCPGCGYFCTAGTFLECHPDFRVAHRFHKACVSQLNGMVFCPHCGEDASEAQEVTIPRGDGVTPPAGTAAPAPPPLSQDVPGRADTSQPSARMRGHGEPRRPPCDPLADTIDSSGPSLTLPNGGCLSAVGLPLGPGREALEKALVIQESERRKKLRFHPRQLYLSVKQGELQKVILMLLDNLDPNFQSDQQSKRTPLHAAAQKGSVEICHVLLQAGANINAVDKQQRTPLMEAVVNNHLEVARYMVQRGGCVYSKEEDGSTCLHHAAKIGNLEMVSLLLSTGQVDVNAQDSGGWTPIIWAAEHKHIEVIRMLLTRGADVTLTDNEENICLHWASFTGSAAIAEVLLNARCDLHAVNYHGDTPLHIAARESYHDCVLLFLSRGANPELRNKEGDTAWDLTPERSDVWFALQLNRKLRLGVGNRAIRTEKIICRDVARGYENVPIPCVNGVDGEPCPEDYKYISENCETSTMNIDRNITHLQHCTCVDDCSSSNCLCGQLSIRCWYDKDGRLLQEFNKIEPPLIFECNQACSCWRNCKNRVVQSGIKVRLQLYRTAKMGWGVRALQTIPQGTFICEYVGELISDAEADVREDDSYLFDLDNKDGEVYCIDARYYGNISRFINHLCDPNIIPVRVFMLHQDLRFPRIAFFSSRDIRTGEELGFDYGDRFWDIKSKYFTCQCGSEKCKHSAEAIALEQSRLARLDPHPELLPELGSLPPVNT
Experiment: MDA-MB-231 H3K9me2 in-cell Western assay (EHMT2 ICW)
Format: cell-based
Settings: Table II; MDA-MB-231 H3K9me2 in-cell Western; read-out: EHMT2 ICW (IC50 μM)
Consider the following molecules and their measured IC50 readings.
value.kind: IC50

[[record]]
molecule = "CNc1cc(Nc2ccc(OC)c(OCCCN3CCCC3)c2)cnn1 [Compound 188]"
result = "> 10 µM"

[[record]]
molecule = "COc1ccc(Nc2nccc(NC3CCCCC3)n2)cc1OCCCN1CCCC1 [Compound 50]"
result = "1 to 10 µM"

[[record]]
molecule = "COc1ccc(N(C)c2nccc(NCC3CCN(C(C)=O)CC3)n2)cc1OCCCN1CCCC1 [Compound 158]"
result = "> 10 µM"

[[record]]
molecule = "CNc1cc(Nc2cc(OCCCN3CCCC3)c(OC)cn2)ccn1 [Compound 248]"
result = "0.1 to 1 µM"

[[record]]
molecule = "COc1ccc(Nc2nccc(NCC3CCN(C(C)=O)CC3)n2)cc1OCCCNc1ccccc1 [Compound 160]"
result = "> 10 µM"

[[record]]
molecule = "COc1ccc(Nc2cc(NCC3CCN(C(C)=O)CC3)cnn2)cc1OCCCN1CCCC1 [Compound 185]"
result = "> 10 µM"

[[record]]
molecule = "COc1ccc(Nc2nccc(N3CCCOCC3)n2)cc1OCCCN1CCCC1 [Compound 151]"
result = "> 10 µM"

[[record]]
molecule = "CNc1nc(Nc2ccc(OC)c(OCCCN3CCCC3)c2)ncc1F [Compound 187]"
result = "1 to 10 µM"

[[record]]
molecule = "COc1ccc(Nc2nccc(NCC3CCN(C(C)C)CC3)n2)cc1OCCCN1CCCC1 [Compound 29]"
result = "0.1 to 1 µM"


====

target: UniProt Q9H9B1; assay: EHMT1 enzyme assay on peptide substrate (EHMT1 PEP); assay type: biochemical; settings: Table II; read-out: EHMT1 PEP (IC50 μM)
Consider the following compounds and their measured IC50 readings.
value.kind: IC50

[[record]]
molecular_string = "CC(=O)N1CCC(CNc2ccnc(Nc3cccc(NC(=O)c4cn(C5CC5)nn4)c3)n2)CC1"
result = "> 10 µM"

[[record]]
molecular_string = "CNc1ccnc(Nc2ccc(OC)c(OCCCN3CCOCC3)c2)n1"
result = "1 to 10 µM"

[[record]]
molecular_string = "COc1ccc(Nc2nccc(N(C)Cc3cccnc3)n2)cc1OCCCN1CCCC1"
result = "1 to 10 µM"

[[record]]
molecular_string = "COCCCNc1ccnc(Nc2ccc(OC)c(OCCCN3CCCC3)c2)n1"
result = "< 0.1 µM"

[[record]]
molecular_string = "COc1ccc(Nc2nccc(N)n2)cc1OCCCN1CCCC1"
result = "0.1 to 1 µM"

[[record]]
molecular_string = "CNc1ccnc(Nc2cccc(OC[C@@H](O)CN3CCCC3)c2)n1"
result = "> 10 µM"

[[record]]
molecular_string = "CNc1nc(C)cc(Nc2ccc(OC)c(OCCCN3CCCC3)c2)n1"
result = "0.1 to 1 µM"

[[record]]
molecular_string = "COc1ccc(Nc2nccc(N3CCc4nc[nH]c(=O)c4C3)n2)cc1OCCCN1CCCC1"
result = "> 10 µM"

[[record]]
molecular_string = "CCCCNc1nccc(NCCCN)n1"
result = "1 to 10 µM"


====

biological target: EHMT1 (Homo sapiens); experiment: EHMT1 enzyme assay on peptide substrate (EHMT1 PEP); assay type: biochemical; details: read-out: EHMT1 PEP (IC50 μM)
Sequence (Q9H9B1 whole entry, species assumed): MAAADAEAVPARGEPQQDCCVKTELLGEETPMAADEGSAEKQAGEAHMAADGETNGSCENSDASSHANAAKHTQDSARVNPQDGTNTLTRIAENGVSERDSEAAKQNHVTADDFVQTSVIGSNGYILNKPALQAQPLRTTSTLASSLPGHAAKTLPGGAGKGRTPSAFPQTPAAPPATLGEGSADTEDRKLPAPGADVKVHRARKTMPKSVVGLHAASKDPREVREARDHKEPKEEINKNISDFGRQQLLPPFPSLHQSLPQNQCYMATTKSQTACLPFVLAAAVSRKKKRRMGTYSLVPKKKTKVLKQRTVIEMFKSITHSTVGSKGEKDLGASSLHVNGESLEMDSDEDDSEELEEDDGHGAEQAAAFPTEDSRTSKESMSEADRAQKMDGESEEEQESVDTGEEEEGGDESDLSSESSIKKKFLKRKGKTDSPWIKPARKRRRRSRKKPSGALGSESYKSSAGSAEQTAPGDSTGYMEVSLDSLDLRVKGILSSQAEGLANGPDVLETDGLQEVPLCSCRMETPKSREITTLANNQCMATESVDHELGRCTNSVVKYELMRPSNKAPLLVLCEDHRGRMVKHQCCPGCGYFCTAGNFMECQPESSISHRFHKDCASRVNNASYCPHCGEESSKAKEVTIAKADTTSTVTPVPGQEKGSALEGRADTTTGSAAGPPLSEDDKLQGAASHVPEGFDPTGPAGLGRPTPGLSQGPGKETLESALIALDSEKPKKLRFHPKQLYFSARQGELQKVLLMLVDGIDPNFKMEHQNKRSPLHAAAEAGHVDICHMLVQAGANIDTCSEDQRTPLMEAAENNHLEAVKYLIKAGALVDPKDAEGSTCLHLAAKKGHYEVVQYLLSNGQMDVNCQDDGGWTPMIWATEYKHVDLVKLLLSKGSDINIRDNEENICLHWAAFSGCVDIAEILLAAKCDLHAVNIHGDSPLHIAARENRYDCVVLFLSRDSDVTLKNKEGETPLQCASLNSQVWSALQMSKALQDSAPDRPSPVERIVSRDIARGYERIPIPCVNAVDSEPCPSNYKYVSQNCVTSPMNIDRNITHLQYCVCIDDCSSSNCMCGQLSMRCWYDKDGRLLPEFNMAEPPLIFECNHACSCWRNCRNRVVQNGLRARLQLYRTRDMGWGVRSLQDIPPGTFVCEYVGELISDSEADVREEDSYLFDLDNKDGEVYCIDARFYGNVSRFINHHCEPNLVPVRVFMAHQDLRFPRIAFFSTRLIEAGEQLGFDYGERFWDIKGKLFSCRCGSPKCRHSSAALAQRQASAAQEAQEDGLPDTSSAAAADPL
Consider the following molecules and their measured IC50 readings.
value.kind: IC50

[[record]]
molecule = "CNc1ccnc(NC2CCNCC2)n1 [Compound 542]"
assayed_target = "EHMT1 (Homo sapiens)"
result = "> 10 µM"

[[record]]
molecule = "CNc1cc(C)nc(Nc2ccc(OC)c(OC(C#N)CCN3CCCC3)c2)n1 (stereo not drawn) [Compound 489]"
assayed_target = "EHMT1 (Homo sapiens)"
result = "0.1 to 1 µM"

[[record]]
molecule = "COc1cc(Nc2nc(C)cc3[nH]ncc23)ncc1OCCCN1CCCC1 [Compound 565]"
assayed_target = "EHMT1 (Homo sapiens)"
result = "1 to 10 µM"

[[record]]
molecule = "CNc1ccnc(Nc2cc(OCCCN3CCCC3)c3cn[nH]c3c2)n1 [Compound 538]"
assayed_target = "EHMT1 (Homo sapiens)"
result = "0.1 to 1 µM"

[[record]]
molecule = "CNc1ccnc(N[C@@H]2CC[C@H](N)C2)n1 [Compound 548]"
assayed_target = "EHMT1 (Homo sapiens)"
result = "> 10 µM"

[[record]]
molecule = "CNc1cc(C)nc(Nc2ccc(OC)c(OCCCCN(C)C)c2)n1 [Compound 502]"
assayed_target = "EHMT1 (Homo sapiens)"
result = "0.1 to 1 µM"

[[record]]
molecule = "CCN1CC(COc2cc(Nc3nccc4[nH]ccc34)ncc2OC)C1 [Compound 564]"
assayed_target = "EHMT1 (Homo sapiens)"
result = "< 0.1 µM"

[[record]]
molecule = "CNc1cc(C2CCOCC2)c2cc(OC)c(OCCCN3CCCC3)cc2n1 [Compound 524]"
assayed_target = "EHMT1 (Homo sapiens)"
result = "< 0.1 µM"

[[record]]
molecule = "CNc1cc(C)nc(Nc2ccc(OC)c(OC[C@@H]3CCNC3)c2)n1 [Compound 600]"
assayed_target = "EHMT1 (Homo sapiens)"
result = "< 0.1 µM"

[[record]]
molecule = "CNc1cc(C2CCCC2)nc(Nc2ccc(OC)c(OCCCN3CCCC3)c2)n1 [Compound 458]"
assayed_target = "EHMT1 (Homo sapiens)"
result = "0.1 to 1 µM"

[[record]]
molecule = "COc1ccc(Nc2nc(C)cc(NC(C)C)n2)cc1OCCCN1CCCC1 [Compound 603]"
assayed_target = "EHMT1 (Homo sapiens)"
result = "< 0.1 µM"

[[record]]
molecule = "COc1ccc(NC2CCNCC2)cc1OCCCN1CCCC1 [Compound 572]"
assayed_target = "EHMT1 (Homo sapiens)"
result = "> 10 µM"

[[record]]
molecule = "CCn1nc(Nc2nccc3[nH]ccc23)cc1COCCN1CCCC1 [Compound 471]"
assayed_target = "EHMT1 (Homo sapiens)"
result = "1 to 10 µM"

[[record]]
molecule = "CCN1CC(COc2cc(Nc3cc(NC)ncc3F)ncc2OC)C1 [Compound 566]"
assayed_target = "EHMT1 (Homo sapiens)"
result = "1 to 10 µM"

[[record]]
molecule = "CCc1cc(NC)nc(Nc2cnc(OC)c(OC[C@@H]3CCN(CC)C3)c2)n1 [Compound 601]"
assayed_target = "EHMT1 (Homo sapiens)"
result = "< 0.1 µM"

